Target: T1, IFN-αF (human, UniProt P01568 24-189)
T1 construct: Recombinant, HEK293; also called IFN-α21
T1 chain: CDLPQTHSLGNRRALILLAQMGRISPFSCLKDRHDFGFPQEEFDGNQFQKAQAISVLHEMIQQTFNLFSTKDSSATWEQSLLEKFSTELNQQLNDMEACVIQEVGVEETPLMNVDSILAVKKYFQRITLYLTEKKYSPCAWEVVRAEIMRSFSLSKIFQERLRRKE
Experiment: ProteOn SPR, cell supernatant;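 also: each binding measurement used just a single antigen concentration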
# Lookup of reported Kd keyed by entry
The reply should be a number in nM, with the unit left off.

Field: example entries. Status: answers known.
IFWM3383 (antibody, IgG1, V domains shown, mAb; IgG1/kappa said of the parent and of selected mAbs; also called IFWB3118) VH: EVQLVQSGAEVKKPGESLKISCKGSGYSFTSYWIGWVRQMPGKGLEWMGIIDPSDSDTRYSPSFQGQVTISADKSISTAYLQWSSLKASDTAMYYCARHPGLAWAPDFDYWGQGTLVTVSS VL: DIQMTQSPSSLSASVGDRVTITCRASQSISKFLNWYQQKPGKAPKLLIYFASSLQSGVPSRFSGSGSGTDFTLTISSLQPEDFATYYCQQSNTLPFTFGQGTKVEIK: 0.06
IFWM3375 (antibody, IgG1, V domains shown, mAb; IgG1/kappa said of the parent and of selected mAbs; also called IFWB3110) VH: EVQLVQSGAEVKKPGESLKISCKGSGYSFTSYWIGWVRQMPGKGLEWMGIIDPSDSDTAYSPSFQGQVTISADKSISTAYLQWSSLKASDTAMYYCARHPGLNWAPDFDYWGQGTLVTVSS VL: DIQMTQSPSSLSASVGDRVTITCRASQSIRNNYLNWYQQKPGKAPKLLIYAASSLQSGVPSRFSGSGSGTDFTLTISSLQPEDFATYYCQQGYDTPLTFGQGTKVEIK: 0.023

Proceeding to the next binder to report its Kd.
// Kd lookup, key: IFWM3399 (antibody, IgG1, V domains shown, mAb; IgG1/kappa said of the parent and of selected mAbs; also called IFWB3134) VH: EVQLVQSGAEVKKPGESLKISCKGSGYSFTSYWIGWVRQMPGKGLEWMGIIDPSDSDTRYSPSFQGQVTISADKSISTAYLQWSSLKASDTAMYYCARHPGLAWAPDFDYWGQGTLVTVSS VL: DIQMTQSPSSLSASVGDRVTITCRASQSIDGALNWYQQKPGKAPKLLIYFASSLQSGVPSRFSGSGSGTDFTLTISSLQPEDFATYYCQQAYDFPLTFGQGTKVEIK 0.021
